System: BALB/c mouse spleen cells
Assay: Lymphocytotoxicity test (MTT)
Format: cell-based
Details: mouse spleen cells, 48 hours, read-out: Lymphocytotoxicity CC50
metric-name: CC50 (µM)
A number alone suffices; assume µM.

| molecule | endpoint-unit | CC50 |
| --- | --- | --- |
| CC1CCC2C(C)C(Oc3ccc(CC(=O)O)cc3)OC3OC4(C)CCC1C32OO4 (stereo not shown) | µM | 100 |
| COc1ccccc1OC(=O)C(C)Oc1cccc(OC2OC3OC4(C)CCC5C(C)CCC(C2C)C35OO4)c1 (stereo not shown) [compound 27] | µM | 2.99 |
| COc1ccccc1OC(=O)C(C)c1ccc(OC2OC3OC4(C)CCC5C(C)CCC(C2C)C35OO4)cc1 (stereo not shown) | µM | 5.33 |
| COc1ccccc1OC(=O)C(C)Oc1ccc(OC2OC3OC4(C)CCC5C(C)CCC(C2C)C35OO4)cc1 (stereo not shown) | µM | 39.1 |
| CC(Oc1cccc(OC2OC3OC4(C)CCC5C(C)CCC(C2C)C35OO4)c1)C(=O)O (stereo not shown) | µM | 35.1 |
| C[C@H]1[C@H](OC(=O)CCC(=O)O)O[C@@H]2O[C@@]3(C)CC[C@H]4[C@H](C)CC[C@@H]1[C@@]24OO3 [artesunate, reference compound] | µM | 86 |

Here is another molecule to look at.
Task: Tell me its CC50 on BALB/c mouse spleen cells: CC1CCC2C(C)C(Oc3ccc(OCC(=O)OCCN(C)C)cc3)OC3OC4(C)CCC1C32OO4 (stereo not shown)
Result: 2.08

src = patent US7910750B2
